- Study conditions: PAMPA, 10 µM, pH 7.4
Positions of bridges follow the written chain, without caps; N, C: chain ends. Non-standard residues stand in square brackets, D forms with d. Residues, ends and D or L forms follow the SMILES beside them. NMeNva = CCC[C@H](NC)C(=O)O; NMeC = CN[C@@H](CS)C(=O)O; NMeA = CN[C@@H](C)C(=O)O; Nva = CCC[C@H](N)C(=O)O; Abu = CC[C@H](N)C(=O)O; NPrGly = CCCNCC(=O)O
compounds and their reported %R_avg
Note to self: number, then unit, no commentary.

Inquiry: Could you tell me which %R_avg is on file for CCC[C@@H]1NC(=O)[C@H](C)N(C)C(=O)[C@H](CC(C)C)NC(=O)CSC[C@@H](C(=O)OCC)N(C)C(=O)[C@H](CC(C)C)NC(=O)[C@H](C)N(C)C(=O)[C@H](CC)NC(=O)[C@H](CCC)N(C)C(=O)[C@H]2CCCN2C1=O [LC03] ({CH2CO}-L[NMeA][Nva][dP][NMeNva][Abu][NMeA]L[NMeC]-OEt; thioether N-9) ?
Reply text: 20.3%

API: the following record is the query input.
Inquiry: Could you tell me which %R_avg is on file for CCCN1CC(=O)N[C@@H](CC)C(=O)N(C)[C@@H](C)C(=O)N[C@@H](CC(C)C)C(=O)N(C)[C@H](C(=O)OCC)CSCC(=O)N[C@@H](CC(C)C)C(=O)N(C)[C@@H](C)C(=O)N[C@@H](CC(C)C)C(=O)N2CCC[C@@H]2C1=O [LA04] ({CH2CO}-L[NMeA]L[dP][NPrGly][Abu][NMeA]L[NMeC]-OEt; thioether N-9) ?
Reply text: 8.2%
